- study.target: UniProt:P04054
- assay.info: Compound was tested for inhibition of human secreted pancreatic PLA2
parameter: IC50

Which IC50 value is on record for `CCCCCCCCn1c(C)c(C(=O)C(N)=O)c2c(OCC(=O)O)cccc21` ? 780 nM

---

- study.target: UniProt P14555
- assay.info: Compound was evaluated to inhibit human nonpancreatic secretory Phospholipase A2 through chromogenic assay
- Assay type: functional
parameter: IC50

Which IC50 value is on record for `CCc1c(C(=O)C(N)=O)c2c(OCC(=O)O)cccc2n1S(=O)(=O)c1ccccc1` ? 28 nM

---

- study.target: Phospholipase A2, membrane associated (Homo sapiens)
- assay.info: Inhibition of human nonpancreatic secretory Phospholipase A2 through chromogenic assay
Entries and their measured IC50 follow.
# output: bare number, implied unit nM

Solved cases below.
>>> df
                                  structure  units_text  observed
0  CCCc1ccc2c(c1OCC(=O)O)c(C(=O)C(N)=O)c(CC)n2Cc1ccccc1          nM      2070
1  Cc1c(C(=O)C(N)=O)c2c(O[C@H](C)C(=O)O)cccc2n1Cc1ccccc1          nM        11
2  Cc1c(C(=O)C(N)=O)c2c(CCC(=O)O)cccc2n1Cc1ccccc1          nM       145
3  CCc1c(C(=O)C(N)=O)c2c(SCC(=O)O)cccc2n1Cc1ccccc1          nM       145
4   CCc1[nH]c2cccc(OCC(=O)O)c2c1C(=O)C(N)=O          nM      1600
5  Cc1c(C(=O)C(N)=O)c2c(OCC(=O)O)cccc2n1Cc1ccccc1-c1ccccc1          nM         6

Which IC50 value is on record for `Cc1ccccc1Cn1c(C)c(C(=O)C(N)=O)c2c(OCC(=O)O)cccc21` ? 15

Now the same for `CCc1c(C(=O)C(N)=O)c2c(CC(=O)O)cc(C)cc2n1Cc1ccccc1` 8

Now the same for `NC(=O)C(=O)c1cn(Cc2ccccc2)c2cccc(OCC(=O)O)c12` 96

Now the same for `Cc1c(C(=O)C(N)=O)c2c(OCCCC(=O)O)cccc2n1Cc1ccccc1-c1ccccc1` 243

Now the same for `Cc1c(C(=O)C(N)=O)c2c(/C=C/C(=O)O)cccc2n1Cc1ccccc1` 46000

Now the same for `COc1ccc2c(c1)c(C(=O)C(N)=O)c(C)n2Cc1ccccc1` 2560

Now the same for `CCc1c(C(=O)C(N)=O)c2c(OCC(=O)O)cccc2n1Cc1ccccc1-c1ccccc1` 6

Now the same for `Cc1c(C(=O)C(N)=O)c2c(OCC(=O)O)cccc2n1Cc1ccccc1` 11

Now the same for `COc1cccc2c1c(C(=O)C(N)=O)c(C)n2Cc1ccccc1` 551

Now the same for `CCc1c(C(=O)C(N)=O)c2c(OCC(=O)O)cccc2n1Cc1cccc(Cl)c1` 7

Now the same for `COc1cccc2c1c(CC(N)=O)c(C)n2Cc1ccccc1` 1180

Now the same for `Cc1c(C(=O)C(N)=O)c2c(OCC(=O)O)cccc2n1Cc1ccc(-c2ccccc2)cc1` 43

Now the same for `CCCCCCCCn1c(C)c(C(=O)C(N)=O)c2c(OCC(=O)O)cccc21` 8

Now the same for `Cc1c(C(=O)C(N)=O)c2c(OCC(=O)O)cccc2n1Cc1cccc(-c2ccccc2)c1` 9

---

- study.target: Phospholipase A2, membrane associated (Homo sapiens, UniProt P14555)
- Sequence (P14555 whole entry): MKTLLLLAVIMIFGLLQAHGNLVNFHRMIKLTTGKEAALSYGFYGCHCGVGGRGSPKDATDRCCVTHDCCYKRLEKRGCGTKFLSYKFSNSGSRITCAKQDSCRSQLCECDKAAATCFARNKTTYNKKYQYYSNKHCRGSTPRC
- assay.info: Inhibition of human nonpancreatic secretory Phospholipase A2 through chromogenic assay
parameter: pIC50
For clarity, pIC50 is expressed as the negative log10 of concentration in mol/L.

Solved cases below.
In [3]: df
Out[3]:
                                   molecule  parameter  observed
0  Cc1c(C(=O)C(N)=O)c2c(OCC(=O)O)cccc2n1Cc1cccc2ccccc12      pIC50      8.05
1  CCc1c(C(=O)C(N)=O)c2c(OC(C)C(=O)O)cccc2n1Cc1ccccc1 (stereo not given)      pIC50      7.96
2  CCc1c(C(=O)C(N)=O)c2c(O[C@@H](C)C(=O)O)cccc2n1Cc1ccccc1      pIC50      6.85
3  Cc1c(C(=O)C(N)=O)c2c(OC(C)C(=O)O)cccc2n1Cc1ccccc1 (stereo not given)      pIC50      8.00

Proceed to the following item.
GET /values?readout=pIC50&system=Phospholipase A2, membrane associated (Homo sapiens, UniProt P14555)&item= `Cc1c(C(=O)C(N)=O)c2c(OCC(=O)O)cccc2n1Cc1ccccc1Cl` 8.05

---

- study.target: Phospholipase A2, membrane associated (Homo sapiens, UniProt P14555)
- assay.info: Inhibition of human nonpancreatic secretory Phospholipase A2 through DOC/PC assay
parameter: IC50 (nM)
# output: bare number, implied unit nM

Solved cases below.
In [3]: df
Out[3]:
                                   molecule  parameter  units_text  observed
0  Cc1c(C(=O)C(N)=O)c2c(OCC(=O)O)cccc2n1Cc1cccc2ccccc12       IC50          nM        17
1  Cc1ccccc1Cn1c(C)c(C(=O)C(N)=O)c2c(OCC(=O)O)cccc21       IC50          nM        45
2  Cc1c(C(=O)C(N)=O)c2c(O[C@H](C)C(=O)O)cccc2n1Cc1ccccc1       IC50          nM         6

Proceed to the following item.
Which IC50 value is on record for `NC(=O)C(=O)c1c(C2CC2)n(Cc2ccccc2)c2cccc(OCC(=O)O)c12` ? 41

---

Entries and their measured IC50 follow.
- study.target: Phospholipase A2, membrane associated (Homo sapiens, UniProt P14555)
- assay.info: Inhibition of human nonpancreatic secretory Phospholipase A2 through chromogenic assay
# output: bare number, implied unit nM

Which IC50 value is on record for `Cc1c(C(=O)C(N)=O)c2c(OCC(=O)O)cccc2n1Cc1ccc(F)cc1` ? 30

Now the same for `CCc1c(C(=O)C(N)=O)c2c(NCC(=O)O)cccc2n1Cc1ccccc1` 1000

Now the same for `CCc1c(C(=O)C(N)=O)c2c(OCC(N)=O)cccc2n1Cc1ccccc1` 124

Now the same for `NC(=O)C(=O)c1c(C2CC2)n(Cc2ccccc2)c2cccc(OCC(=O)O)c12` 28

---

- study.target: Phospholipase A2, membrane associated (Homo sapiens)
- assay.info: Inhibition of human nonpancreatic secretory Phospholipase A2 through DOC/PC assay
So basically: is IC50 under 20 nM? Then YES. Not under? Then NO.

In [3]: df
Out[3]:
                                  structure  answer_label
0  CCCCCCCCn1c(C)c(C(=O)C(N)=O)c2c(OCC(=O)O)cccc21           YES
1  CCc1c(C(=O)C(N)=O)c2c(OCC(=O)O)cccc2n1Cc1cccc(Cl)c1            NO
2  CCc1c(C(=O)C(N)=O)c2c(CC(=O)O)cc(C)cc2n1Cc1ccccc1           YES
3  CCc1c(C(=O)C(N)=O)c2c(OCC(=O)O)cccc2n1Cc1ccccc1-c1ccccc1           YES

hey, is IC50 for `CCc1c(C(=O)C(N)=O)c2c(SCC(=O)O)cccc2n1Cc1ccccc1` lower than 20 nM or not? NO

---

- study.target: Phospholipase A2 (Homo sapiens, UniProt P04054)
- Sequence (P04054 whole entry): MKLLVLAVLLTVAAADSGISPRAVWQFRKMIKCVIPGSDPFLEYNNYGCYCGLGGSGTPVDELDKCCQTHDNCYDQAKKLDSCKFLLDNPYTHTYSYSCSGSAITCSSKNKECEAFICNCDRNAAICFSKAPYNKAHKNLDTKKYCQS
- assay.info: Compound was tested for inhibition of human secretory pancreatic Phospholipase A2
Entries and their measured pIC50 follow.
For clarity, pIC50 is expressed as the negative log10 of concentration in mol/L.

Which pIC50 value is on record for `CCc1c(C(=O)C(N)=O)c2c(OCC(=O)O)cccc2n1Cc1ccccc1` ? 6.64

---

- study.target: Phospholipase A2, major isoenzyme (Sus scrofa, UniProt P00592)
- Sequence (P00592 whole entry): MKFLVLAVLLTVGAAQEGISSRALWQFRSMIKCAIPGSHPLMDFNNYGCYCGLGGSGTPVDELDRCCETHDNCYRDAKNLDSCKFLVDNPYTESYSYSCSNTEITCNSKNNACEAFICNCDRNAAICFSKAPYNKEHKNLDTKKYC
- assay.info: Compound was tested for inhibition of porcine secretory pancreatic Phospholipase A2
parameter: pIC50
For clarity, pIC50 is expressed as the negative log10 of concentration in mol/L.

Solved cases below.
In [3]: df
Out[3]:
                                  structure  observed
0  Cc1c(C(=O)C(N)=O)c2c(OCC(=O)O)cccc2n1Cc1cccc(-c2ccccc2)c1      8.15
1  Cc1c(C(=O)C(N)=O)c2c(OCC(=O)O)cccc2n1Cc1ccccc1      7.82

Proceed to the following item.
Which pIC50 value is on record for `Cc1c(C(=O)C(N)=O)c2c(OCC(=O)O)cccc2n1Cc1ccccc1-c1ccccc1` ? 7.01

---

- study.target: Phospholipase A2, major isoenzyme (Sus scrofa)
- assay.info: Compound was tested for inhibition of porcine secretory pancreatic PLA2
parameter: pIC50
For clarity, pIC50 is expressed as the negative log10 of concentration in mol/L.

GET /values?readout=pIC50&system=Phospholipase A2, major isoenzyme (Sus scrofa)&item= CCc1c(C(=O)C(N)=O)c2c(OCC(=O)O)cccc2n1Cc1ccccc1 [VARESPLADIB] 7.32
